Target: T1, human IL4 (human, UniProt P05112 25-153, biotinylated in the SPR and competition assays (sites not given))
T1 sequence: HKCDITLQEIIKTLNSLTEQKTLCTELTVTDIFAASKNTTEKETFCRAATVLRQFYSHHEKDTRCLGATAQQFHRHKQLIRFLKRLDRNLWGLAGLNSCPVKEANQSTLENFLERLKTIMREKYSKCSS
Test: cell-based or functional assay
The binders listed here are annotated with their HEK Stat6 Inhibition IC50.
Answer format: numeric, nM implied, no suffix.

C06_42A11 (designed binder, ankyrin repeat protein; His-tagged, IMAC-purified) DLGKKLLEAASVGQDDEVHILMANGADVNATDAWGLTPLHLAALLGHLEIVEVLLKHGADVNAHDETGFTPLHLAAVEGHLEIVEVLLKYGADVNASDILGRTPLHLAANFGHLEIVEVLLKHGADVNAQDKFGKTAFDISIDNGNEDLAEILQKLN
0.0193

Would you kindly look at the next entry?
**Q:** Give reported HEK Stat6 Inhibition IC50 value for C06_20B8 (designed binder, ankyrin repeat protein; His-tagged, IMAC-purified) DLGKKLLEAASAGQDDEVHILMANGADVNAVDHDGFTPLHLAAADGHLEIVEVLLKHGADVNADDNFGWTPLHLAAFFGHLEIVEVLLKHGADVNAKDQTGLTPLHLAAVDGHLEIVEVLLKHGADVNAQDKFGKTAFDISIDNGNEDLAEILQKLN
**A:** 0.004
